Reported Clonal Phase ELISA coated signal values are given for each entry in this list.
- measured-on: T1, soluble recombinant human PD-1 receptor (human, UniProt Q15116 25-167, limits assumed)
- T1 construct: also called human PD-1 receptors
- assay-notes: clonal phage ELISA, peptide on phage, PD-1 coated well
Reply with just the number.

>  <binder>
WNLPASFHNHHIRPHEHEWIQ (also called WQ-21) [peptide WQ20]

>  <result-value>
0.275

$$$$
>  <binder>
QTRTVPMPKIHHPPWQNVVP (Found by phage display) [peptide QP20]

>  <result-value>
0.851

$$$$
>  <binder>
SSYHHFKMPELHFGKNTFHQ (Found by phage display) [peptide SQ20]

>  <result-value>
0.284

$$$$

# ---- query binder ----
-- ask Look up Clonal Phase ELISA coated signal of HHHQVYQVRSHWTGMHSGHD (Found by phage display) [peptide HD20] and report it.
-- reply 0.281
